Just for reference, PubChem BioAssay (NCI) is where these values come from.

Tested on: LOX IMVI melanoma
methodDescription: NCI tumour cell line growth inhibition, 48 h
recordedMetric: GI50

compound=[Au+].[Au+].[Au+].[c-]1nccn1Cc1ccccc1.[c-]1nccn1Cc1ccccc1.[c-]1nccn1Cc1ccccc1 recordedmetric=GI50 datavalue="1.56 µM"
compound=Oc1cn(-c2ccc(Cl)cc2)nc1-c1n[nH]c(=S)n1C1CCCCC1 recordedmetric=GI50 datavalue="0.451 µM"
compound=Nc1nc(SN=Nc2ccc(S(N)(=O)=O)cc2)c2[nH]cnc2n1 recordedmetric=GI50 datavalue="0.219 µM"
compound=O=C(/C=C/c1cc(CN2CCOCC2)c(O)c2ncccc12)c1cc(CN2CCOCC2)c(O)c2ncccc12 recordedmetric=GI50 datavalue="0.0394 µM"
compound=O=[N+]([O-])c1ccc2c(c1)C(c1ccccc1Cl)=Nc1cn[nH]c1N2 recordedmetric=GI50 datavalue="18.1 µM"
compound=COc1cccc(/C(COc2ccc3c(c2)oc(=O)c2cc(OC)ccc23)=N/O)c1 recordedmetric=GI50 datavalue="7.14 µM"
compound=CCOC(=O)CNC(=O)c1ccccc1Nc1ccnc(C(F)(F)F)c1 recordedmetric=GI50 datavalue="17.5 µM"
compound="CCCCC1(CN2CCOCC2)S/C(=N/c2nc(CC(=O)OCC)cs2)NC1=O (stereo not given)" recordedmetric=GI50 datavalue="20.3 µM"
compound=NC(N)=NCCCCCNc1noc(Cc2c[nH]c3cc(Br)ccc23)n1 recordedmetric=GI50 datavalue="10.6 µM"
compound=CCn1c(CO)nn(-c2cc(O[C@@H](C)C(F)(F)F)c(C(=O)Nc3c(F)cccc3Cl)cc2F)c1=O recordedmetric=GI50 datavalue="< 0.01 µM"
